Experiment: Clearance in rat at 1 mg/kg, iv and 2 mg/kg, po
Type: ADME, organism-based
Conditions: in vivo
Measured clearance of individual entries
Supply the numeric figure in mL/min/kg, leaving out any unit text.

clearance reported for this compound CS(=O)(=O)c1ccc2c(c1)C(=O)CC1(CCN(C(=O)N[C@H]3C[C@@H]3c3ccccc3)CC1)O2 (racemic) : 1

Further cases:
clearance reported for this compound CS(=O)(=O)c1ccc2c(c1)CCC1(CCN(C(=O)Cc3ccc(Cl)cc3Cl)CC1)O2 : 0.7

clearance reported for this compound CS(=O)(=O)c1ccc2c(c1)CCC1(CCN(C(=O)N[C@H]3C[C@@H]3c3ccccc3)CC1)O2.Cl (racemic) : 0.7

clearance reported for this compound CS(=O)(=O)c1ccc2c(c1)CCC1(CCN(C(=O)c3ccc(C(F)(F)F)cc3)CC1)O2 : 0.9

clearance reported for this compound O=C1CC2(CCN(C(=O)N[C@H]3C[C@@H]3c3ccccc3)CC2)Oc2ccccc21 (racemic) : 47

----------
Test system: Rattus norvegicus
Test: Plasma concentration in spontaneously hypertensive rat plasma at 50 mg/kg, po
Assay type: ADME, organism-based
Parameters: dose 50 mg/kg, route oral
Settings: in vivo
quantity_name: concentration (nM)
Supply the numeric figure in nM, leaving out any unit text.

concentration reported for this compound O=C1CC2(CCN(C(=O)N[C@H]3C[C@@H]3c3ccccc3)CC2)Oc2ccccc21 (racemic) : 800

----------
Target: Epoxide hydrolase 1 (Homo sapiens)
Sequence (P07099 whole entry): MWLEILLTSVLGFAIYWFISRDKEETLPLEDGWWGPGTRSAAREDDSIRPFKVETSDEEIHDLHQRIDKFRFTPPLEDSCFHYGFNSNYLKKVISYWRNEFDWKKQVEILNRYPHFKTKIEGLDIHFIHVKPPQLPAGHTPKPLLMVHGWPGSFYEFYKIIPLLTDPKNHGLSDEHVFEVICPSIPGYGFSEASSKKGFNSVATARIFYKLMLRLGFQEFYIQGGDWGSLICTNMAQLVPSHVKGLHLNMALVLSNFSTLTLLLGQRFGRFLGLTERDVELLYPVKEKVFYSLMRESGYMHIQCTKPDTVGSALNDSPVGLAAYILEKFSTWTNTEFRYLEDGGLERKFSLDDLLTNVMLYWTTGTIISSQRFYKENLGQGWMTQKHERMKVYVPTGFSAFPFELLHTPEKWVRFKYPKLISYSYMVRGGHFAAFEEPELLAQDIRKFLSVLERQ
quantity_name: IC50

IC50 reported for this compound O=C(CCc1ccccc1)N1CCC2(CCc3cc(F)ccc3O2)CC1 : > 100 µM

IC50 reported for this compound O=C(c1ccc(C(F)(F)F)cc1)N1CCC2(CCc3ccccc3O2)CC1 : 22 µM

IC50 reported for this compound CS(=O)(=O)c1ccc2c(c1)CCC1(CCN(C(=O)c3ccc(C(F)(F)F)cc3)CC1)O2 : > 100 µM

IC50 reported for this compound O=C1CC2(CCN(C(=O)N[C@H]3C[C@@H]3c3ccccc3)CC2)Oc2ccc(-c3ccncc3)cc21 (racemic) : > 100 µM

----------
Target: Sodium channel protein type 5 subunit alpha (Homo sapiens, UniProt Q14524)
Sequence (Q14524 whole entry): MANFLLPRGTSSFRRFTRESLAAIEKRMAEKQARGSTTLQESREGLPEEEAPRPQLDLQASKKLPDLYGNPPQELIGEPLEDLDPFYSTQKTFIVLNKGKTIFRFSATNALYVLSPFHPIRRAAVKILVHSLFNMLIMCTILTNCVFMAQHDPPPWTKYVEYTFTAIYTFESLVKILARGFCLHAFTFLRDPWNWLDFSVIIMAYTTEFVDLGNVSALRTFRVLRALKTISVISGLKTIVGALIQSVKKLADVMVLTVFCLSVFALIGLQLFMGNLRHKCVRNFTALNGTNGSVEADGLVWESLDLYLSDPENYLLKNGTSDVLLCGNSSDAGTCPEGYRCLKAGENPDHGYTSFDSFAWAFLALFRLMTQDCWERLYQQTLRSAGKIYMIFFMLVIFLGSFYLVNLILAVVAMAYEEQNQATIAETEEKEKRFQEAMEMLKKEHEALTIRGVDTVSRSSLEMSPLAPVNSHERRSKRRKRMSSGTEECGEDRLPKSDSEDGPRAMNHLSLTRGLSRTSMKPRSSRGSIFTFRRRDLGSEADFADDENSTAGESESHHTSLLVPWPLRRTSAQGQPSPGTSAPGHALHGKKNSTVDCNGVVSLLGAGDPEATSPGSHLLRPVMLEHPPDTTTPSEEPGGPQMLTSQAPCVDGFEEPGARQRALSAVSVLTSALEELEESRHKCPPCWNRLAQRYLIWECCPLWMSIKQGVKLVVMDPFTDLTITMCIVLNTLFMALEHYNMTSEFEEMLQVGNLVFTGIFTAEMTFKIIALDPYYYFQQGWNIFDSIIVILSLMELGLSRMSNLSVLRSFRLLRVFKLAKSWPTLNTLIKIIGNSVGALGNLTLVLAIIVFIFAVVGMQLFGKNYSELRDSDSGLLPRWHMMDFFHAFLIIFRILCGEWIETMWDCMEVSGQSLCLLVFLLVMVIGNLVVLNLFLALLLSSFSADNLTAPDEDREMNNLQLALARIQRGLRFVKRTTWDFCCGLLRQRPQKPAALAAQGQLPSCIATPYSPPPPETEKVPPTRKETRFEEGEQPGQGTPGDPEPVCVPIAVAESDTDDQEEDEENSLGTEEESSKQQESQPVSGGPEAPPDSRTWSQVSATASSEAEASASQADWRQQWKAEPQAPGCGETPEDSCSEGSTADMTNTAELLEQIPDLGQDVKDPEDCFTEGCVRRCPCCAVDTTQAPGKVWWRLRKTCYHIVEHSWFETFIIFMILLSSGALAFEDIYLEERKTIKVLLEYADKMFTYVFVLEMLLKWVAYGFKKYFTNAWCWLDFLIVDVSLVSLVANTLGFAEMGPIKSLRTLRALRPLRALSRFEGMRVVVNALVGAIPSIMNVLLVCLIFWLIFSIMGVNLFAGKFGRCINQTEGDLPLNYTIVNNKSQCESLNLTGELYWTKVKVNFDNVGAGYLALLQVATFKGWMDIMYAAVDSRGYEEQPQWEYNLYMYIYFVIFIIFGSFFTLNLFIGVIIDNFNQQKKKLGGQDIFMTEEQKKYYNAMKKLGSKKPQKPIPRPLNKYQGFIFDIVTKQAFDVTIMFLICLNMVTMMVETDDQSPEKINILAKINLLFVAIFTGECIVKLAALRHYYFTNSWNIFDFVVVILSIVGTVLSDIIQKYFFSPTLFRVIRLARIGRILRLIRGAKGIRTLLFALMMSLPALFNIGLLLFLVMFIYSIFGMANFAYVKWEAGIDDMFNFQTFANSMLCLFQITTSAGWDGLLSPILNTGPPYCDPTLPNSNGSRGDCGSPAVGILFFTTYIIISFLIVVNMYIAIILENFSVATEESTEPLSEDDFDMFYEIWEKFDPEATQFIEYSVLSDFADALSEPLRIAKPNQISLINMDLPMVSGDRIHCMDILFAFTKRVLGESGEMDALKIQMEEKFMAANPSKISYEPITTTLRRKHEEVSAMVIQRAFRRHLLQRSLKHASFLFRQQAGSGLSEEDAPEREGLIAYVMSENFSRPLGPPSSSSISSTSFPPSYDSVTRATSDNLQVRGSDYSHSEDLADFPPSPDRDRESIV
Assay: Inhibition of Voltage-gated sodium channel subunit alpha Nav1.5
pIC50: −log10 of the molar value.
quantity_name: pIC50

Look over these answered cases.
Item CS(=O)(=O)c1ccc2c(c1)CCC1(CCN(C(=O)c3ccc(C(F)(F)F)cc3)CC1)O2 ; assay system Sodium channel protein type 5 subunit alpha (Homo sapiens, UniProt Q14524); pIC50 reported as < 5.00

Item O=C1CC2(CCN(C(=O)N[C@H]3C[C@@H]3c3ccccc3)CC2)Oc2ccc(-c3ccncc3)cc21 (racemic) ; assay system Sodium channel protein type 5 subunit alpha (Homo sapiens, UniProt Q14524); pIC50 reported as < 5.00

Item CS(=O)(=O)c1ccc2c(c1)CCC1(CCN(C(=O)N[C@H]3C[C@@H]3c3ccccc3)CC1)O2 ; assay system Sodium channel protein type 5 subunit alpha (Homo sapiens, UniProt Q14524); pIC50 reported as < 5.00

Further cases:
Item O=C1CC2(CCN(C(=O)N[C@H]3C[C@@H]3c3ccccc3)CC2)Oc2cccnc21 (relative stereo) ; assay system Sodium channel protein type 5 subunit alpha (Homo sapiens, UniProt Q14524); pIC50 reported as < 5.00

Item O=C(N[C@H]1C[C@@H]1c1ccccc1)N1CCC2(CCc3ncccc3O2)CC1 (relative stereo) ; assay system Sodium channel protein type 5 subunit alpha (Homo sapiens, UniProt Q14524); pIC50 reported as < 5.00

Item CS(=O)(=O)c1ccc2c(c1)CCC1(CCCN(C(=O)N[C@H]3C[C@@H]3c3ccccc3)CC1)O2 (relative stereo) ; assay system Sodium channel protein type 5 subunit alpha (Homo sapiens, UniProt Q14524); pIC50 reported as < 5.00

Item O=C(N[C@H]1C[C@@H]1c1ccccc1)N1CCC2(CC1)CC(O)c1ncccc1O2 (relative stereo) ; assay system Sodium channel protein type 5 subunit alpha (Homo sapiens, UniProt Q14524); pIC50 reported as < 5.00

Item Cn1nccc1-c1ccc2c(c1)C(=O)CC1(CCN(C(=O)N[C@H]3C[C@@H]3c3ccccc3)CC1)O2 (racemic) ; assay system Sodium channel protein type 5 subunit alpha (Homo sapiens, UniProt Q14524); pIC50 reported as < 5.00

Item O=C1CC2(CCN(C(=O)NC3CCc4ccccc43)CC2)Oc2ccccc21 (racemic) ; assay system Sodium channel protein type 5 subunit alpha (Homo sapiens, UniProt Q14524); pIC50 reported as > 5.00

Item O=C1CC2(CCN(C(=O)N[C@H]3C[C@@H]3c3ccccc3)CC2)Oc2ccccc21 ; assay system Sodium channel protein type 5 subunit alpha (Homo sapiens, UniProt Q14524); pIC50 reported as < 5.00

Item CS(=O)(=O)c1ccc2c(c1)C(=O)CC1(CCN(C(=O)N[C@@H]3CC[C@@H](c4ccccc4)C3)CC1)O2 (racemic) ; assay system Sodium channel protein type 5 subunit alpha (Homo sapiens, UniProt Q14524); pIC50 reported as < 5.00

----------
Measured IC50 of individual entries
Target: Bifunctional epoxide hydrolase 2 (Homo sapiens)
Sequence (P34913 whole entry): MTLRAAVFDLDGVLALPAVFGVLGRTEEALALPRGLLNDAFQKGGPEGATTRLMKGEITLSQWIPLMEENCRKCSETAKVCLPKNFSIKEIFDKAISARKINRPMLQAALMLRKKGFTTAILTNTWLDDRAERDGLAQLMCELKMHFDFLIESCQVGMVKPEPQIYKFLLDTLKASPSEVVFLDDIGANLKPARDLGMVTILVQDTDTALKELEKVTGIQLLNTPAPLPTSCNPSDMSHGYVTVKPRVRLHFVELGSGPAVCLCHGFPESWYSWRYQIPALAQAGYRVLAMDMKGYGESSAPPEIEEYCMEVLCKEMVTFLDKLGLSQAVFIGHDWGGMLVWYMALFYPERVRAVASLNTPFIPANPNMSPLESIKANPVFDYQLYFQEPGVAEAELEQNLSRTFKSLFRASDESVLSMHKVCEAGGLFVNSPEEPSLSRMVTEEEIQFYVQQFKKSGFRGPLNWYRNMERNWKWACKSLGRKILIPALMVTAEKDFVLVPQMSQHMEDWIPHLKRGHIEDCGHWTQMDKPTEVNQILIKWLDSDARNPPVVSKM
Test: Inhibition of human soluble epoxide hydrolase
Supply the numeric figure in nM, leaving out any unit text.

Look over these answered cases.
IC50 reported for this compound O=C1CC2(CCN(C(=O)N[C@H]3C[C@@H]3c3ccccc3)CC2)Oc2cccnc21 (relative stereo) : 8

IC50 reported for this compound O=C(N[C@H]1C[C@@H]1c1ccccc1)N1CCC2(CCc3ccccc3O2)CC1 (racemic) : 4

IC50 reported for this compound O=C1CC2(CCN(C(=O)NC3CCc4ccccc43)CC2)Oc2ccccc21 (racemic) : 20

// moving on: another record for IC50
IC50 reported for this compound O=C(N[C@H]1C[C@@H]1c1ccccc1)N1CCC2(CC1)CC(O)c1ncccc1O2 (relative stereo) : 8

----------
Target: UniProt P10635
Sequence (P10635 whole entry): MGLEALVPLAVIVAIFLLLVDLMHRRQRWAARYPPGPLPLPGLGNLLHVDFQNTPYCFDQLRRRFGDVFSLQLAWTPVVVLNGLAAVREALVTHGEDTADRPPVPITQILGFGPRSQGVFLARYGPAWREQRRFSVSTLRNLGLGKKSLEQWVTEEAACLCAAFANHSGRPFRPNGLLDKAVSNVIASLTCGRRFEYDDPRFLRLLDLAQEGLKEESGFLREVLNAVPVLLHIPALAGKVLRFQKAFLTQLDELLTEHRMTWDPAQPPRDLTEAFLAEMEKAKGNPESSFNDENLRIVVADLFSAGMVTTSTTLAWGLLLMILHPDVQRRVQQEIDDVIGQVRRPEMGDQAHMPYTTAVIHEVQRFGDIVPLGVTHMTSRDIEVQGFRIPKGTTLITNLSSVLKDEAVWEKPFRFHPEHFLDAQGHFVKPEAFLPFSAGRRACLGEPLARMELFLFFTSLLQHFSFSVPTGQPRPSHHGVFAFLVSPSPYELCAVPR
pIC50: −log10 of the molar value.
Measured pIC50 of individual entries

Item O=C1CC2(CCN(C(=O)N[C@H]3C[C@@H]3c3ccccc3)CC2)Oc2ccc(-c3ccncc3)cc21 (racemic) ; assay system UniProt P10635; pIC50 reported as > 5.00

Item O=C(N[C@H]1C[C@@H]1c1ccccc1)N1CCC2(CC1)CC(O)c1ncccc1O2 (relative stereo) ; assay system UniProt P10635; pIC50 reported as < 5.00

// moving on: another record for pIC50
Item O=C(N[C@H]1C[C@@H]1c1ccccc1)N1CCC2(CCc3ncccc3O2)CC1 (relative stereo) ; assay system UniProt P10635; pIC50 reported as < 5.00

----------
Molecular target: Bifunctional epoxide hydrolase 2 (Rattus norvegicus)
Sequence (P80299 whole entry): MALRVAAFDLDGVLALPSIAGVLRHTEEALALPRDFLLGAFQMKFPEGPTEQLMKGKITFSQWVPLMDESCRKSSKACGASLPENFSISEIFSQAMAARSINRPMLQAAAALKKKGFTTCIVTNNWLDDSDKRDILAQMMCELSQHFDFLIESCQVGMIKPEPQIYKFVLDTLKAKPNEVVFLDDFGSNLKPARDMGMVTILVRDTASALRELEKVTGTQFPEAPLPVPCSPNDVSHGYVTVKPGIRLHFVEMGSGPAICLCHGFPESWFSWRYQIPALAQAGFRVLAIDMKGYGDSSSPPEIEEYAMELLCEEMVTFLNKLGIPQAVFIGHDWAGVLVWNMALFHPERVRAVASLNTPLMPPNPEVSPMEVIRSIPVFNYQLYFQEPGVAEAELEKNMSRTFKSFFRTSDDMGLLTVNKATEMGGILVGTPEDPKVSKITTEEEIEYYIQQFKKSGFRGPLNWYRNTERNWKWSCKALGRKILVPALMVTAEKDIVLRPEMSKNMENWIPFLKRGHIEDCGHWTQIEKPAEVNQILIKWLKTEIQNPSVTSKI
Test: Inhibition of rat soluble epoxide hydrolase
Measured pIC50 of individual entries
// scale note: pIC50 = -log10(conc_M); give the bare number

Look over these answered cases.
pIC50 reported for this molecule O=C1CC2(CCN(C(=O)NC3CCc4ccccc4CC3)CC2)Oc2ccccc21 : 7.55

pIC50 reported for this molecule CS(=O)(=O)c1ccc2c(c1)CCC1(CCCN(C(=O)N[C@H]3C[C@@H]3c3ccccc3)CC1)O2 (relative stereo) : 7.31

pIC50 reported for this molecule O=C1CC2(CCN(C(=O)N[C@H]3C[C@@H]3c3ccccc3)CC2)Oc2cccnc21 (relative stereo) : 7.70

pIC50 reported for this molecule O=C(N[C@H]1C[C@@H]1c1ccccc1)N1CCC2(CC1)CC(O)c1ncccc1O2 (relative stereo) : 7.51

pIC50 reported for this molecule O=C1CC2(CCN(C(=O)NC3CCc4ccccc43)CC2)Oc2ccccc21 (racemic) : 7.46

pIC50 reported for this molecule O=C1CC2(CCN(C(=O)N[C@H]3C[C@@H]3c3ccccc3)CC2)Oc2ccccc21 (relative stereo) : 7.54

pIC50 reported for this molecule Cn1nccc1-c1ccc2c(c1)C(=O)CC1(CCN(C(=O)N[C@H]3C[C@@H]3c3ccccc3)CC1)O2 (racemic) : 7.68

pIC50 reported for this molecule Cn1nccc1Nc1ccc2c(c1)C(=O)CC1(CCN(C(=O)N[C@H]3C[C@@H]3c3ccccc3)CC1)O2 (racemic) : 7.89

pIC50 reported for this molecule CS(=O)(=O)c1ccc2c(c1)CCC1(CCN(C(=O)N[C@H]3C[C@@H]3c3ccccc3)CC1)O2 : 7.64

pIC50 reported for this molecule CS(=O)(=O)c1ccc2c(c1)C(=O)CC1(CCN(C(=O)N[C@@H]3CC[C@@H](c4ccccc4)C3)CC1)O2 (racemic) : 7.68

Further cases:
pIC50 reported for this molecule CS(=O)(=O)c1ccc2c(c1)CCC1(CCN(C(=O)Cc3ccc(Cl)cc3Cl)CC1)O2 : 8.40

pIC50 reported for this molecule O=C(N[C@H]1C[C@@H]1c1ccccc1)N1CCC2(CCc3cc(F)ccc3O2)CC1 (racemic) : 7.74

pIC50 reported for this molecule O=C1CC2(CCN(C(=O)N[C@H]3C[C@@H]3c3ccccc3)CC2)Oc2ccc(-c3ccncc3)cc21 (racemic) : 8.15

pIC50 reported for this molecule O=C1CC2(CCN(C(=O)N[C@H]3C[C@@H]3c3ccccc3)CC2)Oc2ccccc21 : 8.05

pIC50 reported for this molecule CS(=O)(=O)c1ccc2c(c1)C(=O)CC1(CCN(C(=O)N[C@H]3C[C@@H]3c3ccccc3)CC1)O2 (racemic) : 7.92

pIC50 reported for this molecule O=C(N[C@H]1C[C@@H]1c1ccccc1)N1CCC2(CCc3ncccc3O2)CC1 (relative stereo) : 7.68
